# Test system: SK-OV-3 ovarian
# METHOD DESCRIPTION: NCI-60 one-dose screen, 48 h (100 = growth as untreated, 0 = no growth, -100 = all killed)
# SETUP CONDITIONS: 10 µM unless noted
Compounds without any hit were thinned out: in the full panel of roughly 83,000, 20% have a hit.
REPORTED ENDPOINT: growth (%)

INSERT INTO assay_data (molecule, experimental_target, units_of_measure, value_reported) VALUES
  ('CN(C)c1ccc(/C=C/C(=O)c2ccccc2)cc1', 'SK-OV-3 ovarian', '%', 96.9),
  ('CCn1c2ccc(O)cc2c2c(C)c3c[n+](C(C)C)ccc3c(C)c21', 'SK-OV-3 ovarian', '%', 89.8),
  ('Cc1ccc(-c2nc(C#N)c(S(=O)(=O)NCCO)o2)cc1', 'SK-OV-3 ovarian', '%', 95.7),
  ('O=c1[nH]cnc2c1C(c1ccc(Br)cc1)c1sc3c(F)cccc3c1O2 (stereo unspecified)', 'SK-OV-3 ovarian', '%', 117),
  ('CS(=O)(=O)Cc1cnc(C2OCCO2)s1', 'SK-OV-3 ovarian', '%', 139),
  ('Cc1ccc(N=Nc2c(N)nn(-c3ccccc3)c2N)cc1', 'SK-OV-3 ovarian', '%', 37.2);

====

# System: RXF 393 renal
# METHOD DESCRIPTION: NCI-60 one-dose screen, 48 h (100 = growth as untreated, 0 = no growth, -100 = all killed)
# SETUP CONDITIONS: 10 µM unless noted
# Procedure: Cells are grown in 96 well plates and exposed to the test compound for 48 hours. Compounds are tested at a single concentration, which is 10^-5 M for most compounds. The reported endpoint is percent growth (GI% or GIPRCNT), where numbers from 0 - 100% represent growth inhibition, and numbers from -100% - 0 represent cell death. For example, a value of 40 represents 60% growth inhibition. A value of 0 means no net growth occurred over the course of the experiment. […]
This is part of a sample that, as a whole, favours compounds with a hit. Of some 83,000 tested, about 20% had one in any assay.
Let's look at some compounds and their measured growth.
REPORTED ENDPOINT: growth (%)

INSERT INTO results (compound, units_of_measure, value_reported) VALUES
  ('CC1CN=C(c2cccc(-c3ccc(-c4ccccc4)o3)c2)N1 (stereo not given)', '%', -67.8),
  ('CCOC(=O)c1ccc2c(c1)c1c(C)c3ccncc3c(C)c1n2C', '%', -62.3),
  ('Cn1cc(-c2nonc2-c2c[nH]c3ccc(F)cc23)c2cc(Br)ccc21', '%', 74.2),
  ('Cc1cc(C)cc(Nc2ccc([N+](=O)[O-])c(NCCN3CCOCC3)n2)c1', '%', 58.4),
  ('COc1ccc(C(C)=O)cc1S(N)(=O)=O', '%', 102),
  ('O=C(/C=C/C12c3ccccc3C(c3ccccc31)C1C(=O)NC(=O)C12)c1ccc(F)cc1 (stereo not given)', '%', -35.4),
  ('CCN(CC)CCNC(=O)c1ccc(-c2nc3ccc4[nH]ncc4c3c3c2CCCC3)cc1', '%', 36.4),
  ('COc1cccc(/C=C2\COc3ccc(O)cc3C2=O)c1', '%', 105),
  ('C=CC(=O)NCCOc1cccc(Nc2cc(NCCCNC(=O)C3CCC3)c(Br)cn2)c1', '%', -77),
  ('O=C(O)CCCn1c(SCc2c(Cl)cccc2Cl)nc2ccsc2c1=O', '%', -27.9);

====

Let's look at some molecules and their measured growth.
# Tested on: SF-268 CNS
# METHOD DESCRIPTION: NCI-60 one-dose screen, 48 h (100 = growth as untreated, 0 = no growth, -100 = all killed)
# SETUP CONDITIONS: 10 µM unless noted
This is part of a sample that, as a whole, favours compounds with a hit. Of some 83,000 tested, about 20% had one in any assay. Active and inactive are the calls of the source. The calls were made as follows: active = growth percent below 10; inactive = the rest.
REPORTED ENDPOINT: growth

INSERT INTO assay_data (molecule, reported_endpoint, value_reported) VALUES
  ('COc1cc(C(=O)/C=C/c2ccc(N3CCN(C)CC3)cc2)cc(OC)c1OC', 'growth', '97.9% (inactive)'),
  ('COc1ccc(Cc2cnc(NC(=O)c3sc4ccccc4c3Cl)s2)cc1', 'growth', '52.9% (inactive)'),
  ('CCNCc1ccc(O)c2ncccc12', 'growth', '35.2% (inactive)'),
  ('O=C1/C(=C/c2ccc(C(F)(F)F)cc2)COc2ccc(O)c(O)c21', 'growth', '-0.987% (active)'),
  ('CCOC(=O)c1c2c(n3ccccc13)C(=O)c1ncccc1C2=O', 'growth', '20% (inactive)'),
  ('C#CC#CC#CC#CC#CC#CC#CC#CC[C@H]1OC[C@H](COC(=O)O[C@@H](C(=O)O[C@H]2C[C@@]3(O)[C@@H](OC(=O)c4ccccc4)[C@@H]4[C@]5(OC(C)=O)CO[C@@H]5C[C@H](O)[C@@]4(C)C(=O)[C@H](OC(C)=O)C(=C2C)C3(C)C)[C@@H](NC(=O)c2ccccc2)c2ccccc2)O1', 'growth', '61.7% (inactive)'),
  ('N#Cc1c(-c2cccc([N+](=O)[O-])c2)cc(-c2ccc(Nc3nc(Nc4ccc(F)cc4)nc(Nc4ccc(F)cc4)n3)cc2)nc1N', 'growth', '164% (inactive)'),
  ('CC(O)c1ncc(/C=C2\SC(=S)N(Cc3ccccc3)C2=O)s1 (centres undefined)', 'growth', '89.8% (inactive)'),
  ('COc1ccc(/C(C)=C(\c2ccc(Cl)cc2)c2ccc(OCCN3CCCC3)cc2)cc1', 'growth', '51.8% (inactive)'),
  ('Cc1cccc(NC(=O)CSc2nc3ccc([N+](=O)[O-])cc3[nH]2)c1', 'growth', '87.8% (inactive)'),
  ('COc1cc2c(cc1O)[C@@]1(C)[C@H](c3ccccc3Br)OC(=O)N1CC2', 'growth', '94.7% (inactive)'),
  ('COc1ccc(C2=Nc3c/c(=C\c4c(O)[nH]c5cc(Cl)ccc45)ccc3=N2)cc1', 'growth', '89.7% (inactive)'),
  ('CC(C)C[C@@H](C(=O)N[C@H](C(=O)OC1CCCC1)c1ccccc1)[C@H](O)C(=O)NO', 'growth', '88.9% (inactive)'),
  ('Cc1cc2nc3c4ccccc4n(CCN(C)C)c3nc2cc1C', 'growth', '31.2% (inactive)'),
  ('Cc1ccc(-c2nc(C(Cl)Cl)nc3cc(C)nn23)cc1', 'growth', '21.4% (inactive)'),
  ('Cn1cc(-c2csc(-c3cn(C)c4ccc(Br)cc34)n2)c2cnccc21', 'growth', '-73.8% (active)'),
  ('COc1ccc2nc3ccccc3c(NCc3ccccc3)c2c1', 'growth', '44.2% (inactive)'),
  ('O[C@@H](c1cc(C(F)(F)F)nc2c(C(F)(F)F)cccc12)[C@H]1CCCCN1', 'growth', '54.7% (inactive)'),
  ('COc1cccc(/C=C/C(=O)c2cc3c(N)c(C(=O)Nc4cccc(Cl)c4C)sc3nc2C)c1', 'growth', '10.1% (inactive)');

====

# System: A498 renal
# METHOD DESCRIPTION: NCI-60 one-dose screen, 48 h
# SETUP CONDITIONS: 10 µM unless noted
The panel holds about 83,000 compounds, 20% with a hit somewhere; the sample as a whole holds those more often. Calls of active or inactive are those of the source. Rule for the calls: active = growth percent below 10; inactive = the rest.
Outcomes: Yes for active, No for inactive

INSERT INTO measurements (compound, experimental_target, assigned_category) VALUES
  ('C=CC(C)(O)CC/C=C(\CO)C(=O)OC1C(C)OC(O[C@](C)(C=C)CC/C=C(\CO)C(=O)O[C@H]2C[C@@]3(C(=O)OC4OC(CO)C(O)C(O)C4OC4OC(C)C(OC5OC(CO)C(O)C5O)C(OC5OC(CO)C(O)C(O)C5O)C4O)C(CC2(C)C)C2=CCC4[C@@]5(C)CC[C@H](OC6OC(COC7OC(C)C(O)C(O)C7OC7OCC(O)C(O)C7O)C(O)C(O)C6NC(C)=O)C(C)(C)C5CC[C@@]4(C)[C@]2(C)C[C@H]3O)C(O)C1O (stereo partly drawn)', 'A498 renal', 'Yes'),
  ('COc1ccc(Nc2ncc(C(N)=O)c(NCCCNC(=O)C3CCC3)n2)cc1', 'A498 renal', 'No'),
  ('CCOC(=O)c1cn2ncnc(Oc3ccc(NC(=O)NC4CC4)c(F)c3)c2c1C', 'A498 renal', 'No');

====

# System: ACHN renal
# METHOD DESCRIPTION: NCI-60 one-dose screen, 48 h
# SETUP CONDITIONS: 10 µM unless noted
Compounds without any hit were thinned out: in the full panel of roughly 83,000, 20% have a hit. Active and inactive are the calls of the source. Rule for the calls: active = growth percent below 10; inactive = the rest.
Outcomes: 1 (yes) (active), 0 (no) (inactive)

INSERT INTO measurements (compound, assigned_category) VALUES
  ('COc1ccc(/C(C)=C(\c2ccc(Cl)cc2)c2ccc(OCCN3CCCC3)cc2)cc1', '0 (no)'),
  ('COc1ccc(Nc2ncc(C(N)=O)c(NCCCNC(=O)C3CCC3)n2)cc1', '0 (no)'),
  ('CCCCn1sc(=O)n(Cc2ccc(CNC(=O)OCc3ccc4c(Br)cc(Br)c(O)c4n3)cc2)c1=O', '0 (no)'),
  ('C=C(CO)[C@@H]1CC[C@]2(COC3CCCCO3)CC[C@]3(C)[C@H](CC[C@@H]4[C@@]5(C)C=C(C=O)C(=O)C(C)(C)[C@@H]5CC[C@]43C)[C@@H]12 (some centres undefined)', '1 (yes)');
